Attribution: BindingDB's records for doi:10.1021/jm00397a017

Target: Dihydrofolate reductase (Escherichia coli (strain K12))
Sequence (P0ABQ4 whole entry): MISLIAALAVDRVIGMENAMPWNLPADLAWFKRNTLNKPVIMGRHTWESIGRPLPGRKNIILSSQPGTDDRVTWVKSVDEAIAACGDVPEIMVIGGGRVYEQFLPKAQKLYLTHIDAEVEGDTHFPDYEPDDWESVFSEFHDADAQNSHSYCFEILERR
Test: ChEBML_54731
pKi: −log10 of the molar value.
Kindly return T if reported pKi is no lower than 9; return F if it is lower.

hey, is pKi for this one >= 9? CCCOc1cc(Cc2cnc(N)nc2N)cc(OCC)c1
F

Decide: is the reported value of pKi for Cc1cc(C)cc(Cc2cnc(N)nc2N)c1 equal to or greater than 9?
F

Is reported pKi greater than or equal to 9 here: CS(=O)(=O)Oc1ccc(Cc2cnc(N)nc2N)cc1
F

Dear colleague, could you confirm whether COc1ccc(Cc2cnc(N)nc2N)cc1OCc1ccccc1 has pKi at or above 9?
T

Does pKi meet or surpass 9 for COc1cc(Cc2cnc(N)nc2N)ccc1OCc1ccccc1 ?
T

Determine whether this compound has pKi no lower than 9: Nc1ncc(Cc2ccc(OCc3ccccc3)cc2)c(N)n1
F

###

Biological target: Dihydrofolate reductase (Escherichia coli (strain K12), UniProt P0ABQ4)
Test: ChEBML_54731
Quantity: pKi
Please express pKi as -log10 of the molar concentration.

For the compound COCCOc1cc(Cc2cnc(N)nc2N)ccc1OC , give its reported pKi.
8.74

State its pKi: CCCCOc1cc(Cc2cnc(N)nc2N)cc(Br)c1OC
8.96

Could you please provide reported pKi for COc1cc(Cc2cnc(N)nc2N)ccc1O ? Thanks!
9.05

Dear colleague, please send me the reported pKi for COc1ccc(Cc2cnc(N)nc2N)cc1OS(C)(=O)=O when you can.
8.96

Respond only with pKi recorded for CCOc1cc(Cc2cnc(N)nc2N)cc(OCC)c1
9.11

Give the measured pKi for CCCOc1cc(Cc2cnc(N)nc2N)cc(Br)c1OC
8.96

Specify measured pKi for Nc1ncc(Cc2cc(OCc3ccccc3)cc(OCc3ccccc3)c2)c(N)n1 .
8.77

Quick one: give measured pKi for CCCCOc1ccc(Cc2cnc(N)nc2N)cc1OC
9.01

Give pKi for COCCOc1ccc(Cc2cnc(N)nc2N)cc1OC
9.25

# return recorded pKi for entry CCCOc1cc(Cc2cnc(N)nc2N)cc(OCCC)c1
8.80
